Tested on: biotinyl-Phe-oxazolone
Assay: self-aminoacylation, catalytic enhancement (BFO) (fold over background); higher = more active; k-Seq, kA / k0A0; sequences stand for … in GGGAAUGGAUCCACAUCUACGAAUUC…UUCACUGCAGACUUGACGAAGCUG
Fewer inactive variants are shown than the library holds.
Label criterion met when self-aminoacylation >= 2; otherwise criterion not met.

Reference set, count: 5
residues="AACUUUGCUAGUAGUCGCAAG [Fam3.1 aminoacylation ribozyme variant]" label_class="criterion met"
residues="CCACACUUCAGGCAGUCGGUC [Fam1B.1 aminoacylation ribozyme variant]" label_class="criterion not met"
residues="CUACUUCAAUCAAUCGGUCUC [Fam1A.1 aminoacylation ribozyme variant]" label_class="criterion met"
residues="GCACACUACAAGCAAUCGGUC [Fam1B.1 aminoacylation ribozyme variant]" label_class="criterion not met"
residues="AUUAGCCUGGUCAUAGAGUGA [Fam2.1 aminoacylation ribozyme variant]" label_class="criterion met"

input: Hello, I need to know if GUUCACCUAGGUCAUCGGGUU [Fam2.2 aminoacylation ribozyme variant] has measured self-aminoacylation not below 2. Thanks!
output: criterion met

input: Try AUUACCCUGGUCACCGCGUGA [Fam2.1 aminoacylation ribozyme variant] next.
output: criterion met

input: Record: AAAUUUGCUAAUACUCGCAAG [Fam3.1 aminoacylation ribozyme variant]
output: criterion not met

---

Tested on: biotinyl-Phe-oxazolone
Test: self-aminoacylation, catalytic enhancement (BFO) (fold over background); higher = more active; k-Seq, kA / k0A0; sequences stand for … in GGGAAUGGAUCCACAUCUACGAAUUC…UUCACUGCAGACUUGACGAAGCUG
Fewer inactive variants are shown than the library holds.
Endpoint label: self-aminoacylation

Would you please look over these solved cases?
residues="AUUCACCUAGAUCAACGGGUG [Fam2.2 aminoacylation ribozyme variant]" endpoint_label=self-aminoacylation result=25.3
residues="CUACUUCGAACAAGCGGUCUG [Fam1A.1 aminoacylation ribozyme variant]" endpoint_label=self-aminoacylation result=0.721
residues="AAGGUCGCUAAUAGUCGCAAG [Fam3.1 aminoacylation ribozyme variant]" endpoint_label=self-aminoacylation result=2.86
residues="AUUCACCUAGGUCUGCGGGUG [Fam2.2 aminoacylation ribozyme variant]" endpoint_label=self-aminoacylation result=12.8
residues="AAGUUUGCUAAUAGUCCCAAC [Fam3.1 aminoacylation ribozyme variant]" endpoint_label=self-aminoacylation result=1.04

input: For the sequence shown here, AUUCACCCAGGUCAUCGCGUG [Fam2.2 aminoacylation ribozyme variant] , give the reported self-aminoacylation.
output: 123

input: Next: AUUCACCUAAGUCAUCGGGUU [Fam2.2 aminoacylation ribozyme variant]
output: 10.7

input: What about this sequence? CUACUUCAAACUAUCGGUUUG [Fam1A.1 aminoacylation ribozyme variant]
output: 0.88

input: Try this sequence next: CCACAGUUCAAUCAAUCGGUC [Fam1B.1 aminoacylation ribozyme variant]
output: 2.95

input: Request: CCACACUUCAAGCUAUAGGUC [Fam1B.1 aminoacylation ribozyme variant]
output: 0.975

input: Then what about the sequence CCAAUUCAAACAAUCGGUCUG [Fam1A.1 aminoacylation ribozyme variant] ?
output: 6.78

input: Do the same for CGACACUUCAAGCAAUCGGUA [Fam1B.1 aminoacylation ribozyme variant] please
output: 2.02

input: Same lookup for AUUUCCCUGGUCAUCGGGUGA [Fam2.1 aminoacylation ribozyme variant] , please.
output: 90.8

input: Follow-up item: AAGUUUGCUAAUGGUCGCACG [Fam3.1 aminoacylation ribozyme variant]
output: 2.96

input: Entry AAUUGUGCUAAUAGUCGCAAG [Fam3.1 aminoacylation ribozyme variant] please
output: 3.05

input: Also need AUCCACCUAGGGCAUCGGGUG [Fam2.2 aminoacylation ribozyme variant] , thanks.
output: 22.1

input: Subsequent entry: AUUCACCUAGGUGAUCGGUUG [Fam2.2 aminoacylation ribozyme variant]
output: 3.17

input: Now try CUAUUUCAAAGAAUCGGUCUG [Fam1A.1 aminoacylation ribozyme variant] .
output: 1.19

input: Could you do the same for AUUACCCUGGUAAUAGAGUGA [Fam2.1 aminoacylation ribozyme variant] , please?
output: 125
